# TARGET_SYSTEM: PD-1/PD-L1 (Homo sapiens, UniProt Q9NZQ7)
# Construct: Recombinant human PD-L1 protein (19-238) with a His-tag at the C-terminus; purchased AcroBiosystems PD1-H5229 (PD-L1); PD1-H5257 (PD-1)
# Sequence (Q9NZQ7 19-238): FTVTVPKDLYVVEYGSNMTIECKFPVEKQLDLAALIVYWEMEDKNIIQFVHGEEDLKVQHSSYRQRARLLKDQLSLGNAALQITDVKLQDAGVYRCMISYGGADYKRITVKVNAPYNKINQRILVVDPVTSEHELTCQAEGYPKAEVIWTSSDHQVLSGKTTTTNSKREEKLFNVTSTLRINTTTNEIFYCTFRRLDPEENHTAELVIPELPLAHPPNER
# ASSAY_EXPLANATION: PD-1/PD-L1 homogenous time-resolved fluorescence (HTRF) binding assay
# ASSAY_SETUP: Table 6, class symbols
READOUT_TYPE: IC50

The cases that follow already have their IC50 on record.
{"columns": ["COMPOUND", "IC50"],
 "data": [
  ["Cc1c(-c2ccccc2)cccc1-c1nc2cc(CN3CCCC[C@H]3C(=O)O)c(OC(F)F)cc2o1", "0.1 to 10 nM"],
  ["Cc1c(-c2ccccc2)cccc1-c1nc2cc(CN3CCCC[C@H]3C(=O)O)c(OCC(F)(F)F)cc2o1", "10 to 100 nM"],
  ["Cc1c(-c2ccccc2)cccc1-c1nc2cc(CN[C@@H](C)C(=O)O)c(OCC(F)(F)F)cc2o1", "10 to 100 nM"]
]}

// moving on: another record for IC50
## Input Report IC50 from PD-1/PD-L1 (Homo sapiens, UniProt Q9NZQ7) testing of "Cc1c(-c2ccccc2)cccc1-c1nc2cc3c(cc2o1)OC[C@H](C(=O)O)NC3"
## Output 100 to 1000 nM

---

# TARGET_SYSTEM: PD-1/PD-L1 (Homo sapiens, UniProt Q9NZQ7)
# Construct: Recombinant human PD-L1 protein (19-238) with a His-tag at the C-terminus; purchased AcroBiosystems PD1-H5229 (PD-L1); PD1-H5257 (PD-1)
# ASSAY_EXPLANATION: PD-1/PD-L1 homogenous time-resolved fluorescence (HTRF) binding assay
# ASSAY_SETUP: Table 6, class symbols
pIC50: −log10 of the molar value.
READOUT_TYPE: pIC50

The cases that follow already have their pIC50 on record.
{"columns": ["MOLECULE", "TARGET_SYSTEM", "pIC50"],
 "data": [
  ["CC[C@@H](NCc1cc2nc(-c3cccc(-c4ccccc4)c3C)oc2cc1SC)C(=O)O", "PD-1/PD-L1 (Homo sapiens, UniProt Q9NZQ7)", "7.00 to 8.00"],
  ["N#Cc1c(-c2ccccc2)cccc1-c1nc2cc(CN3CCOC[C@H]3C(=O)O)c(OCC(F)(F)F)cc2o1", "PD-1/PD-L1 (Homo sapiens, UniProt Q9NZQ7)", "7.00 to 8.00"],
  ["N#Cc1ccccc1-c1cccc(-c2nc3cc(CN4CCC[C@H]4C(=O)O)c(OC(F)F)cc3o2)c1C#N", "PD-1/PD-L1 (Homo sapiens, UniProt Q9NZQ7)", "7.00 to 8.00"],
  ["Cc1c(-c2ccccc2)cccc1-c1nc2cc(CN3CCCCC3C(=O)O)c(C#N)cc2o1 (centres unmarked)", "PD-1/PD-L1 (Homo sapiens, UniProt Q9NZQ7)", "8.00 to 10.00"],
  ["Cc1c(-c2ccccc2)cccc1-c1nc2cc(CN3CCCCC3CO)c(OC(F)F)cc2o1 (centres unmarked)", "PD-1/PD-L1 (Homo sapiens, UniProt Q9NZQ7)", "8.00 to 10.00"],
  ["Cc1c(-c2ccccc2)cccc1-c1nc2cc(CN3CCC[C@H]3C(=O)O)c(O)cc2o1", "PD-1/PD-L1 (Homo sapiens, UniProt Q9NZQ7)", "7.00 to 8.00"],
  ["CSc1cc2oc(-c3cccc(-c4ccccc4)c3C)nc2cc1CN1CCC[C@@H]1C(=O)O", "PD-1/PD-L1 (Homo sapiens, UniProt Q9NZQ7)", "8.00 to 10.00"]
]}

// moving on: another record for pIC50
## Input Report pIC50 from PD-1/PD-L1 (Homo sapiens, UniProt Q9NZQ7) testing of "CC[C@H](NCc1cc2nc(-c3cccc(-c4ccccc4)c3C)oc2cc1SC)C(=O)O"
## Output 8.00 to 10.00

---

# ASSAY_EXPLANATION: Pharmacokinetic Assay
# Assay type: in vivo
# ASSAY_SETUP: rat; male rats, single oral (intragastric) dose 25 mg/kg, plasma
READOUT_TYPE: Tmax (h)

The cases that follow already have their Tmax on record.
{"columns": ["COMPOUND", "Tmax / h"],
 "data": [
  ["Cc1c(-c2ccccc2)cccc1-c1nc2cc(CN3CCC[C@H]3C(=O)O)c(Cl)cc2o1", 1],
  ["Cc1c(-c2ccccc2)cccc1-c1nc2cc(CN3CCOC[C@H]3C(=O)O)c(OC(F)F)cc2o1", 1],
  ["Cc1c(-c2ccccc2)cccc1-c1nc2cc(CN3CCCC[C@H]3C(=O)O)c(OC(F)F)cc2o1", 1]
]}

A = CSc1cc2oc(-c3cccc(-c4ccccc4)c3C)nc2cc1CN1CCC[C@H]1C(=O)O
B = COc1cc2oc(-c3cccc(-c4ccccc4)c3C)nc2cc1CNCCO [Com. EX. No. 2, reference compound]
C = Cc1c(-c2ccccc2)cccc1-c1nc2cc(CN3CCCC[C@H]3C(=O)O)c(OCC#N)cc2o1 [Com. EX. No. 1, reference compound]
D = Cc1c(-c2nc3cc(CN4CCC[C@H]4C(=O)O)c(OC(F)F)cc3o2)cccc1-c1ccccc1F
## Input Returns the items ordered by Tmax, from maximum to minimum. Sort and list the labels as requested.
## Output B, D, A, C

---

# TARGET_SYSTEM: PD-1/PD-L1 (Homo sapiens, UniProt Q9NZQ7)
# Construct: Recombinant human PD-L1 protein (19-238) with a His-tag at the C-terminus; purchased AcroBiosystems PD1-H5229 (PD-L1); PD1-H5257 (PD-1)
# ASSAY_EXPLANATION: PD-1/PD-L1 homogenous time-resolved fluorescence (HTRF) binding assay
# ASSAY_SETUP: Table 6, numeric values
pIC50: −log10 of the molar value.
READOUT_TYPE: pIC50

The cases that follow already have their pIC50 on record.
{"columns": ["ITEM_SMILES", "EXPERIMENTAL_RESULT"],
 "data": [
  ["Cc1c(-c2ccccc2)cccc1-c1nc2cc(CN3CCCC[C@H]3C(=O)O)c(F)cc2o1", 8.13],
  ["Cc1c(-c2ccccc2)cccc1-c1nc2cc(CN3CCOC[C@H]3C(=O)O)c(OC(F)F)cc2o1", 8.96],
  ["Cc1c(-c2ccccc2)cccc1-c1nc2cc(CN[C@H](C(=O)O)[C@H](C)O)c(OC(F)F)cc2o1", 8.49],
  ["Cc1c(-c2ccccc2)cccc1-c1nc2cc(CN3CCC[C@H]3C(=O)O)c(Cl)cc2o1", 8.74],
  ["Cc1cc2oc(-c3cccc(-c4ccccc4)c3C)nc2cc1CN1CCCC[C@H]1C(=O)O", 8.74]
]}

a = CSc1cc2oc(-c3cccc(-c4ccccc4)c3C)nc2cc1CN1CCCC[C@H]1C(=O)O
b = Cc1c(-c2ccccc2)cccc1-c1nc2cc(CN[C@@H](C(=O)O)[C@@H](C)O)c(OC(F)F)cc2o1
## Input For the pair a and b , which member has the lower pIC50 number? Give the label of your selection.
## Output b

---

Listed compounds paired with reported IC50
# TARGET_SYSTEM: PD-1/PD-L1 (Homo sapiens, UniProt Q9NZQ7)
# Construct: Recombinant human PD-L1 protein (19-238) with a His-tag at the C-terminus; purchased AcroBiosystems PD1-H5229 (PD-L1); PD1-H5257 (PD-1)
# ASSAY_EXPLANATION: PD-1/PD-L1 homogenous time-resolved fluorescence (HTRF) binding assay
# ASSAY_SETUP: Table 6, class symbols

The cases that follow already have their IC50 on record.
{"columns": ["COMPOUND", "IC50"],
 "data": [
  ["CSc1cc2oc(-c3cccc(-c4ccccc4)c3C)nc2cc1CN1CCCCC1CO (stereo not shown) [Example 8]", "10 to 100 nM"],
  ["Cc1c(-c2ccccc2)cccc1-c1nc2cc(CN3CCC3C(=O)O)c(OC(F)F)cc2o1 (stereo not shown) [Example 48]", "0.1 to 10 nM"]
]}

## Input Give reported IC50 value for CSc1cc2oc(-c3cccc(-c4ccccc4)c3C)nc2cc1CN[C@@H](CO)C(=O)O [Example 13]
## Output 0.1 to 10 nM

## Input Give reported IC50 value for CSc1cc2oc(-c3cccc(-c4ccccc4)c3C)nc2cc1CN[C@H](CO)C(=O)O [Example 12]
## Output 0.1 to 10 nM

---

Listed compounds paired with reported pIC50
# TARGET_SYSTEM: PD-1/PD-L1 (Homo sapiens)
# Construct: Recombinant human PD-L1 protein (19-238) with a His-tag at the C-terminus; purchased AcroBiosystems PD1-H5229 (PD-L1); PD1-H5257 (PD-1)
# ASSAY_EXPLANATION: PD-1/PD-L1 homogenous time-resolved fluorescence (HTRF) binding assay
# ASSAY_SETUP: Table 6, class symbols
pIC50: −log10 of the molar value.

The cases that follow already have their pIC50 on record.
{"columns": ["COMPOUND", "EXPERIMENTAL_RESULT"],
 "data": [
  ["CSc1cc2oc(-c3cccc(-c4ccccc4)c3C#N)nc2cc1CN1CCC[C@H]1C(=O)O [Example 14]", "8.00 to 10.00"],
  ["Cc1c(-c2ccccc2)cccc1-c1nc2cc(CN3CCCC3(C)C(=O)O)c(OC(F)F)cc2o1 (stereo not drawn) [Example 50]", "8.00 to 10.00"],
  ["CSc1cc2oc(-c3cccc(-c4ccccc4)c3C)nc2cc1CN[C@H](C)C(=O)O [Example 6]", "7.00 to 8.00"],
  ["CC[C@H](NCc1cc2nc(-c3cccc(-c4ccccc4)c3C)oc2cc1OC(F)F)C(=O)O [Example 40]", "8.00 to 10.00"],
  ["Cc1c(-c2ccccc2)cccc1-c1nc2cc(CN3CCC[C@H]3C(=O)O)c(OCC(F)(F)F)cc2o1 [Example 60]", "7.00 to 8.00"]
]}

## Input Give reported pIC50 value for Cc1c(-c2ccccc2)cccc1-c1nc2cc(CN3CCCCC3C(=O)O)n3ncnc3c2o1 (stereo not drawn) [Example 69]
## Output 6.00 to 7.00

## Input Give reported pIC50 value for Cc1c(-c2ccccc2)cccc1-c1nc2cc(CNCC(=O)O)c(OC(F)F)cc2o1 [Example 35]
## Output 8.00 to 10.00

## Input Give reported pIC50 value for Cc1c(-c2ccccc2)cccc1-c1nc2cc(CN3CCC[C@H]3C(=O)O)c(OC(F)(F)F)cc2o1 [Example 63]
## Output 8.00 to 10.00

## Input Give reported pIC50 value for CSc1cc2oc(-c3cccc(-c4ccccc4)c3C)nc2cc1CN1CCOC[C@H]1C(=O)O [Example 9]
## Output 8.00 to 10.00

## Input Give reported pIC50 value for CSc1cc2oc(-c3cccc(-c4ccccc4)c3C)nc2cc1CN[C@@H](C)C(=O)O [Example 5]
## Output 8.00 to 10.00

## Input Give reported pIC50 value for Cc1cc2oc(-c3cccc(-c4ccccc4)c3C#N)nc2cc1CN1CCOC[C@H]1C(=O)O [Example 19]
## Output 8.00 to 10.00

## Input Give reported pIC50 value for Cc1c(-c2ccc3c(c2)OCCO3)cccc1-c1nc2cc(CN3CCC[C@H]3C(=O)O)c(OC(F)F)cc2o1 [Example 47]
## Output 8.00 to 10.00

## Input Give reported pIC50 value for Cc1c(-c2ccccc2)cccc1-c1nc2cc(CN3CCC[C@H]3C(=O)O)c(S(C)(=O)=O)cc2o1 [Example 66]
## Output 8.00 to 10.00

## Input Give reported pIC50 value for CSc1cc2oc(-c3cccc(-c4ccccc4)c3C)nc2cc1CN[C@@H](C(=O)O)[C@@H](C)O [Example 3]
## Output 7.00 to 8.00

## Input Give reported pIC50 value for Cc1c(-c2ccccc2)cccc1-c1nc2cc(CN3CCC[C@@H]3C(=O)O)c(OC(F)F)cc2o1 [Example 37]
## Output 7.00 to 8.00

## Input Give reported pIC50 value for Cc1c(-c2ccccc2)cccc1-c1nc2cc(CN3CCOC[C@H]3C(=O)O)c(OCC(F)(F)F)cc2o1 [Example 58]
## Output 7.00 to 8.00

## Input Give reported pIC50 value for Cc1c(-c2ccccc2)cccc1-c1nc2cc(CN3CCC[C@H]3C(=O)O)c(OC(F)F)cc2o1 [Example 36]
## Output 8.00 to 10.00

## Input Give reported pIC50 value for Cc1cc2oc(-c3cccc(-c4ccccc4)c3C#N)nc2cc1CN1CCC[C@H]1C(=O)O [Example 18]
## Output 8.00 to 10.00

## Input Give reported pIC50 value for Cc1c(-c2ccccc2)cccc1-c1nc2cc(CN3CCCCC3C(=O)O)c3c(c2o1)C(=O)CO3 (stereo not drawn) [Example 68]
## Output 6.00 to 7.00

## Input Give reported pIC50 value for Cc1c(-c2ccccc2)cccc1-c1nc2cc(CN3CCCCC3C(=O)O)c3c(c2o1)C(=O)CO3 (stereo not drawn) [Example 73]
## Output 6.00 to 7.00

## Input Give reported pIC50 value for CSc1cc2oc(-c3cccc(-c4ccccc4)c3C)nc2cc1CN1CCCC1(C)C(=O)O (stereo not drawn) [Example 16]
## Output 8.00 to 10.00

## Input Give reported pIC50 value for Cc1c(-c2ccccc2)cccc1-c1nc2cc(CN3CCCC3(C)C(=O)O)c(OC(F)F)cc2o1 (stereo not drawn) [Example 46]
## Output 8.00 to 10.00

## Input Give reported pIC50 value for Cc1cc2oc(-c3cccc(-c4ccccc4)c3C#N)nc2cc1CN1CCC[C@@H]1C(=O)O [Example 17]
## Output 8.00 to 10.00

## Input Give reported pIC50 value for CC[C@@H](NCc1cc2nc(-c3cccc(-c4ccccc4)c3C)oc2cc1OC(F)F)C(=O)O [Example 41]
## Output 7.00 to 8.00

## Input Give reported pIC50 value for Cc1c(-c2ccccc2)cccc1-c1nc2cc(CN3CCC[C@H]3C(=O)O)c(OS(C)(=O)=O)cc2o1 [Example 64]
## Output 8.00 to 10.00

## Input Give reported pIC50 value for CSc1cc2oc(-c3cccc(-c4ccccc4)c3C)nc2cc1CN1CCC[C@H]1C(=O)O [Example 2]
## Output 8.00 to 10.00

## Input Give reported pIC50 value for Cc1c(-c2nc3cc(CN4CCC[C@H]4C(=O)O)c(OC(F)F)cc3o2)cccc1-c1ccccc1F [Example 52]
## Output 7.00 to 8.00

Hey, just so you know, these numbers are from patent US20220041583A1.
